Test system: DIV14
Assay: qHTS profiling for inhibitors of Plasmodium falciparum proliferation (AID 504749); further: nearly all actives have a fitted effect of over 60% in size; further: potency means the concentration at half of the fitted maximal effect
Conditions: P. falciparum in erythrocytes, SYBR Green DNA, 72 h; series mostly up to 28.7 µM
Records with an inconclusive call do not appear. Active and inactive are the calls of the source. The call rests on the fitted dose curve; in most records, active means well fitted inhibition curve with a large enough effect; inconclusive means small, poorly fitted or top-dose-only effect; inactive means flat fitted curve, though single readings scatter.
recordedEndpoint: Potency

Some entries whose results are on file:
>  <molecule>
C[C@H]1C[C@@H]2[C@@H]([C@@H](O)C[C@@]3(C)[C@H]2CC[C@]3(O)C(=O)CO)[C@@]2(C)C=CC(=O)C=C12

>  <Potency>
inactive

$$$$
>  <molecule>
Nc1ccn([C@@H]2O[C@H](CO)[C@H](O)C2(F)F)c(=O)n1

>  <Potency>
849 nM (active)

$$$$
>  <molecule>
CN1c2cc(O)c(N=NC(N)=O)cc2CC1S(=O)(=O)O (stereo not drawn)

>  <Potency>
inactive

$$$$
>  <molecule>
COC(=O)C[C@](O)(CCCC(C)(C)O)C(=O)O[C@@H]1C(OC)=C[C@]23CCCN2CCc2cc4c(cc2[C@H]13)OCO4

>  <Potency>
26.9 nM (active)

$$$$

// Potency lookup, key: CC(C)(C)NC(=O)[C@H]1CN(Cc2cccnc2)CCN1C[C@@H](O)C[C@@H](Cc1ccccc1)C(=O)N[C@H]1c2ccccc2C[C@H]1O
13500 nM (active)

Dear colleague, I am looking for the recorded Potency of the following molecule: COc1c(N2C[C@@H]3CCCN[C@H]3C2)c(F)cc2c(=O)c(C(=O)O)cn(C3CC3)c12
inactive

Please look up its Potency: CC[C@H]1CN2CCc3cc(OC)c(OC)cc3[C@H]2C[C@@H]1C[C@@H]1NCCc2cc(OC)c(OC)cc21
379 nM (active)

Recorded Potency for CCC1=C[C@@H]2CN(C1)Cc1c([nH]c3ccccc13)[C@@](C(=O)OC)(c1cc3c(cc1OC)N(C)[C@@H]1[C@@](O)(C(=O)OC)[C@H](OC(C)=O)[C@]4(CC)C=CCN5CC[C@]31[C@@H]54)C2 , please?
3790 nM (active)
